# Tested on: HPAEC
# method notes: Pharmacologic inhibitor effects on barrier enhancement (TER)
# cond: 1 μM agonist, 2-h preincubation 2 mM MβCD, 60 min
The compounds listed here are annotated with their % Inhibition of Maximal TER Response (of Agonist-Only Control), MβCD.
property measured: % Inhibition of Maximal TER Response (of Agonist-Only Control), MβCD

[[record]]
compound = "CCCCCCCCc1ccc(CC[C@](N)(CO)CCP(=O)(O)O)cc1"
measured_on = "HPAEC"
result = "67.0 (±19.7) %"

[[record]]
compound = "CCCCCCCCc1ccc(CC[C@@](N)(CO)CCP(=O)(O)O)cc1"
measured_on = "HPAEC"
result = "97.2 (±0.8) %"

[[record]]
compound = "CCCCCCCCc1ccc(CC[C@@](N)(C=CP(=O)(O)O)CO)cc1"
measured_on = "HPAEC"
result = "87.4 (±5.4) %"

[[record]]
compound = "CCCCCCCCc1ccc(CCC(N)(CO)CO)cc1"
measured_on = "HPAEC"
result = "88.1 (±5.6) %"

[[record]]
compound = "CCCCCCCCCCCCC/C=C/[C@@H](O)[C@@H](N)COP(=O)(O)O [S1P, sphingosine 1 phosphate]"
measured_on = "HPAEC"
result = "81.5 (±8.0) %"

[[record]]
compound = "CCCCCCCCc1ccc(CC[C@](N)(C=CP(=O)(O)O)CO)cc1"
measured_on = "HPAEC"
result = "95.2 (±1.0) %"


----------
The molecules listed here are annotated with their % Inhibition of Maximal TER Response (of Agonist-Only Control), Gen.
# Tested on: HPAEC
# method notes: Pharmacologic inhibitor effects on barrier enhancement (TER)
# cond: 1 μM agonist, 30-min preincubation 200 μM genistein, 60 min
property measured: % Inhibition of Maximal TER Response (of Agonist-Only Control), Gen

[[record]]
molecule = "CCCCCCCCc1ccc(CC[C@@](N)(C=CP(=O)(O)O)CO)cc1 [2R]"
result = "41.1 (±12.2) %"

[[record]]
molecule = "CCCCCCCCc1ccc(CCC(N)(CO)CO)cc1 [FTY720]"
result = "86.2 (±10.7) %"

[[record]]
molecule = "CCCCCCCCCCCCC/C=C/[C@@H](O)[C@@H](N)COP(=O)(O)O [S1P, sphingosine 1 phosphate]"
result = "42.4 (±13.9) %"

[[record]]
molecule = "CCCCCCCCc1ccc(CC[C@@](N)(CO)CCP(=O)(O)O)cc1 [1S]"
result = "51.9 (±21.0) %"

[[record]]
molecule = "CCCCCCCCc1ccc(CC[C@](N)(CO)CCP(=O)(O)O)cc1 [1R]"
result = "54.3 (±14.7) %"

[[record]]
molecule = "CCCCCCCCc1ccc(CC[C@](N)(C=CP(=O)(O)O)CO)cc1 [2S]"
result = "91.6 (±2.4) %"

